Attribution: PubChem BioAssay AID248

T/C overview
system: L1210 leukemia ip in BDF1 mice, survival T/C; assay: NCI In Vivo Anticancer Drug Screen. Data for tumor model L1210 Leukemia (intraperitoneal) in B6D2F1 (BDF1) mice; conditions: endpoint: mean survival time; dose: 400.0 mg/kg/injection; schedule: Q01DX001 (ip); vehicle: other; higher = longer survival
Toxic doses and inconclusive results are not listed.

Here's what some known entries look like.
O=C(N/N=C/c1ccc2c(c1)OCO2)c1ccco1 | 98 % of control
CCOP(=S)(NCCCOC)OCC | 98 % of control
ICc1ccc(CI)cc1 | 88 % of control

For the compound CN(CCO)/N=N/c1nc[nH]c1C#N , what T/C is on record?
94 % of control

For the compound CCCCCCCCCCCCC/C=N\NC(=O)CCCC(=O)N/N=C/CCCCCCCCCCCCC , what T/C is on record?
98 % of control

For the compound C/C(=N\O)C(O)c1ccccc1 (configuration not stated) , what T/C is on record?
92 % of control

For the compound Cc1c(C(C)c2[nH]c3ccccc3c2C)[nH]c2ccccc12 , what T/C is on record?
93 % of control

* * *

tested on: L1210 leukemia ip in BDF1 mice, survival T/C; assay: NCI In Vivo Anticancer Drug Screen. Data for tumor model L1210 Leukemia (intraperitoneal) in B6D2F1 (BDF1) mice; conditions: endpoint: mean survival time; dose: 10.0 mg/kg/injection; schedule: Q01DX009 (ip); vehicle: saline
Inconclusive results and toxic doses are left out. Rule as the data show it: active = T/C of 150% or more; inactive = T/C below 125%.
Give your call using only these classes: 1.0 for active, 0.0 for inactive

Use the examples below as a reference point.
CN(Cc1cnc2nc(N[Si](C)(C)C)nc(N[Si](C)(C)C)c2n1)c1ccc(C(=O)NC(CCC(=O)O[Si](C)(C)C)C(=O)O[Si](C)(C)C)cc1 (centres undefined) | 1.0
CC(=O)OCCN1CCN(CC/C=C2\c3ccccc3Sc3ccc(Cl)cc32)CC1 | 0.0
CCCCCCCCCCCCCC1=NCCN1CCO | 0.0

Would you mind telling me which call this test gave CS(=O)(=O)OCC(=O)COS(C)(=O)=O ?
0.0

* * *

test system: L1210 leukemia ip in BDF1 mice, survival T/C; experiment: NCI In Vivo Anticancer Drug Screen. Data for tumor model L1210 Leukemia (intraperitoneal) in B6D2F1 (BDF1) mice; conditions: endpoint: mean survival time; dose: 200.0 mg/kg/injection; schedule: Q01DX001 (ip); vehicle: steriod suspending solution; higher = longer survival
Toxic doses and inconclusive results are not listed.
T/C overview

Here's what some known entries look like.
COC(=O)C1=NNC(c2ccc(OC)cc2)C1 (centres undefined) | 97 % of control
COC(=O)C1C(=C(c2ccccc2)c2ccccc2)C1c1ccccc1 (centres undefined) | 98 % of control
CC1(C(=O)O)CC(Cl)=CCC1C(=O)O (centres undefined) | 103 % of control

For the compound CNS(=O)(=O)c1ccccc1C=C(c1ccccc1)c1ccccc1 , what T/C is on record?
114 % of control

* * *

system: L1210 leukemia ip in BDF1 mice, survival T/C; assay: NCI In Vivo Anticancer Drug Screen. Data for tumor model L1210 Leukemia (intraperitoneal) in B6D2F1 (BDF1) mice; details: endpoint: mean survival time; dose: 50.0 mg/kg/injection; schedule: Q01DX009 (ip); vehicle: Klucel (hydroxypropylcellulose) (HPC); higher = longer survival
Toxic doses and inconclusive results are not listed.
T/C overview

CC(=O)Oc1c(C)cc(O)c2ccccc12 | 96 % of control
O=C(O)CC(Sc1ccccc1)c1ccccc1 (centres undefined) | 98 % of control
O=C(/C=C(\C(=O)c1ccccc1)c1ccccc1)c1ccc(Cl)cc1 | 103 % of control
O=C(O)C(Br)C(Br)C(=O)Nc1cccc(C(F)(F)F)c1 (centres undefined) | 96 % of control
COc1cc(N(CCO)CCO)ccc1NC(=O)c1ccccc1 | 97 % of control

Next molecule, T/C to be filled in.
API: value(readout=T/C, system=L1210 leukemia ip in BDF1 mice, survival T/C) for record NC(=O)C=C1c2ccccc2-c2ccccc21
94 % of control
